Below are pIC50 measurements against UniProt:P46925 drawn from the literature.
Recall that pIC50 is obtained by taking minus log10 of the concentration measured in molar.

These recorded examples may help you get a feel for the data.
CCCCCc1ccc(-c2cc(CCC(=O)O)c3c(=O)n(CC4CCCO4)c(N)nc3c2)cc1 (stereo not drawn) :: 7.30
Nc1nc2cc(-c3ccccc3)ccc2c(=O)n1C[C@@H]1CC[C@@H](c2ccccc2)O1 (racemic) :: 5.54
CCCCCc1ccc(C(=O)N(CCN(C(C)C)C(C)C)Cc2ccc(-c3ccc4c(c3)OCO4)cc2)cc1 :: 5.82
CCCCCc1ccc(C(=O)N(Cc2ccc(-c3ccc(CC(=O)OC)cc3)cc2)C2CCN(CCC(C)C)CC2)cc1 :: 8.22

// query Please tell me: pIC50 of `CCCN(CCC)C(=O)c1cc(C(=O)N[C@@H](Cc2ccccc2)[C@@H](O)CNC(C)(C)c2ccccc2)cc(N2CCCCS2(=O)=O)c1` , system UniProt:P46925?
// result 4.62

// query Please tell me: pIC50 of `CC(C)C[C@H](NC(=O)[C@H](CC#N)NC(=O)C[C@H](O)[C@H](Cc1ccccc1)NC(=O)[C@@H](NC(=O)c1ccccn1)C(C)C)C(N)=O` , system UniProt:P46925?
// result 6.85

// query Please tell me: pIC50 of `CCCCCc1ccc(C(=O)N(CCN(CCCC)CCCC)Cc2ccc(-c3cncnc3)cn2)cc1` , system UniProt:P46925?
// result 5.07

// query Please tell me: pIC50 of `CCCCCc1ccc(C(=O)N(CCN(CCCC)CCCC)Cc2ccc(-c3ccccn3)nc2)cc1` , system UniProt:P46925?
// result 6.13

* * *

Below are log10 IC50 measurements against UniProtKB P46925 drawn from the literature.
Note the log scale: values are log10 of IC50 expressed in nM.

These recorded examples may help you get a feel for the data.
CCCCCc1ccc(C(=O)N(CCCc2ccccc2)C2CCN(Cc3ccccc3)CC2)cc1 :: 3.23
CCCCCc1ccc(C(=O)N(CCN(CCCC)CCCC)Cc2ccc(Nc3ccccc3)cc2)cc1 :: 2.35
CCCCCc1ccc(C(=O)N(CCN(CCCC)CCCC)Cc2ccc(-c3ccc(CC(=O)OC)cc3)cc2)cc1 :: 2.26
CCCCCc1ccc(-n2nnc(CCN3CCCC3)c2Cc2ccc(-c3ccc(OC)cc3)cc2)cc1 :: 2.78
CC(C)CCc1ccc(-c2ccc3c(=O)n(C[C@@H]4CC[C@H](c5ccccc5)O4)c(N)nc3c2)cc1 (racemic) :: 2.78
O=C(Cn1c(-c2ccccn2)nc2ccccc21)c1ccc(Cl)cc1 :: 4.33

// query Give its log10 IC50 value. Item: `CCCCCc1ccc(-n2nnc(CCN3CCN(C)CC3)c2Cc2ccc(-c3ccc(OC)cc3)cc2)cc1`
// result 3.26

// query Give its log10 IC50 value. Item: `CCCCCc1ccc(C(=O)N(CCN(CCCC)CCCC)Cc2ccc(-c3ccccc3)nc2)cc1`
// result 2.77

// query Give its log10 IC50 value. Item: Nc1nc2cc(-c3ccc(CCCc4ccccc4)cc3)cc(CCC(=O)O)c2c(=O)n1CC1CCCO1 (centres undefined)
// result 4.22

// query Give its log10 IC50 value. Item: `COc1cccc(C(C)(C)NC[C@@H](O)[C@H](Cc2ccccc2)NC(=O)c2cc(C(=O)N3CCCC3)cc(N3CCCCC3)c2)c1`
// result 2.70

// query Give its log10 IC50 value. Item: `CCCCCc1ccc(C(=O)N(CCN(CCCC)CCCC)Cc2ccc(NC(=O)C3CCNCC3)cc2)cc1`
// result 2.67

// query Give its log10 IC50 value. Item: `CCCCCc1ccc(C(=O)N(CCN(CCCC)CCCC)Cc2ccc(-c3ccccc3)cn2)cc1`
// result 3.37

// query Give its log10 IC50 value. Item: `CCCCCc1ccc(C(=O)N(CCN(CCCC)CCCC)Cc2ccc(N(C)c3ccccc3)cc2)cc1`
// result 2.76

// query Give its log10 IC50 value. Item: `CCCCCc1ccc(C(=O)N(CCN(CCCC)CCCC)Cc2ccc(Nc3ccncc3)cc2)cc1`
// result 3.26

// query Give its log10 IC50 value. Item: `CCCCCc1ccc(C(=O)N(CCN(CCCC)CCCC)Cc2ccc(NC(=O)c3cnccn3)cc2)cc1`
// result 2.39

// query Give its log10 IC50 value. Item: `CCCCCc1ccc(C(=O)N(CCN2CCC(Cc3ccccc3)CC2)Cc2ccc(-c3ccc4c(c3)OCO4)cc2)cc1`
// result 2.28

// query Give its log10 IC50 value. Item: Nc1nc2cc(-c3ccc(CCCc4ccccc4)cc3)ccc2c(=O)n1C[C@@H]1CC[C@H](c2ccccc2)O1 (racemic)
// result 4.00

// query Give its log10 IC50 value. Item: `O=C(Cn1c(-c2ccccn2)nc2ccccc21)c1ccc(-c2ccccc2)cc1`
// result 4.17
